# MEASUREMENT NOTES: activity coefficient (dimensionless); of the first substance listed, at infinite dilution; xn = mol fraction of the nth substance listed
# RECORDED CONDITIONS: 378.15 K; 101.33 kPa; Liquid; Chromatography; x1 = 0
MEASUREMENT TYPE: activity coefficient
Format: numeric value only, no unit, no commentary.

*Q* For the compound CCCCCCCCC [nonane] + CCCCCCCCCCCC[N+](C)(C)CCOc1ccccc1.N#C[N-]C#N , what activity coefficient is on record?
*A* 8.34

*Q* For the compound CCC[N+](=O)[O-] [1-nitropropane] + CCCCCCCCCCCC[N+](C)(C)CCOc1ccccc1.N#C[N-]C#N , what activity coefficient is on record?
*A* 0.92

*Q* For the compound C1=CCCCC1 [cyclohexene] + CCCCCCCCCCCC[N+](C)(C)CCOc1ccccc1.N#C[N-]C#N , what activity coefficient is on record?
*A* 2.31

*Q* For the compound CC(C)=O [acetone] + CCCCCCCCCCCC[N+](C)(C)CCOc1ccccc1.N#C[N-]C#N , what activity coefficient is on record?
*A* 0.834

---

# MEASUREMENT NOTES: activity coefficient (dimensionless); of the first substance listed, at infinite dilution; xn = mol fraction of the nth substance listed
# RECORDED CONDITIONS: 328.15 K; 101.33 kPa; Liquid; Chromatography; x1 = 0
Field: activity coefficient. Provide a value for each of the compounds that follow.
Format: numeric value only, no unit, no commentary.

*Q* For the compound O [water] + CCCCCCCCCCCC[N+](C)(C)CCOc1ccccc1.N#C[N-]C#N , what activity coefficient is on record?
*A* 0.467

*Q* For the compound C1CCOC1 [tetrahydrofuran] + CCCCCCCCCCCC[N+](C)(C)CCOc1ccccc1.N#C[N-]C#N , what activity coefficient is on record?
*A* 0.704

*Q* For the compound CCC(C)O (centres undefined) [butan-2-ol] + CCCCCCCCCCCC[N+](C)(C)CCOc1ccccc1.N#C[N-]C#N , what activity coefficient is on record?
*A* 0.495

*Q* For the compound CCCOCCC [dipropyl ether] + CCCCCCCCCCCC[N+](C)(C)CCOc1ccccc1.N#C[N-]C#N , what activity coefficient is on record?
*A* 3.36

*Q* For the compound C=Cc1ccccc1 [styrene] + CCCCCCCCCCCC[N+](C)(C)CCOc1ccccc1.N#C[N-]C#N , what activity coefficient is on record?
*A* 0.905

*Q* For the compound CCC(C)(C)C [2,2-dimethylbutane] + CCCCCCCCCCCC[N+](C)(C)CCOc1ccccc1.N#C[N-]C#N , what activity coefficient is on record?
*A* 5.84

*Q* For the compound CO [methanol] + CCCCCCCCCCCC[N+](C)(C)CCOc1ccccc1.O=S(=O)([N-]S(=O)(=O)C(F)(F)F)C(F)(F)F , what activity coefficient is on record?
*A* 1.06

*Q* For the compound C=CCCC [1-pentene] + CCCCCCCCCCCC[N+](C)(C)CCOc1ccccc1.O=S(=O)([N-]S(=O)(=O)C(F)(F)F)C(F)(F)F , what activity coefficient is on record?
*A* 1.88

*Q* For the compound C=Cc1ccccc1 [styrene] + CCCCCCCCCCCC[N+](C)(C)CCOc1ccccc1.O=S(=O)([N-]S(=O)(=O)C(F)(F)F)C(F)(F)F , what activity coefficient is on record?
*A* 0.672

*Q* For the compound C=CCCCCCC [oct-1-ene] + CCCCCCCCCCCC[N+](C)(C)CCOc1ccccc1.N#C[N-]C#N , what activity coefficient is on record?
*A* 4.87

*Q* For the compound C=CCCCCCCCC [1-decene] + CCCCCCCCCCCC[N+](C)(C)CCOc1ccccc1.O=S(=O)([N-]S(=O)(=O)C(F)(F)F)C(F)(F)F , what activity coefficient is on record?
*A* 4.15

*Q* For the compound Cc1ccc(C)cc1 [1,4-dimethylbenzene] + CCCCCCCCCCCC[N+](C)(C)CCOc1ccccc1.O=S(=O)([N-]S(=O)(=O)C(F)(F)F)C(F)(F)F , what activity coefficient is on record?
*A* 0.916

*Q* For the compound C1CCCCCC1 [cycloheptane] + CCCCCCCCCCCC[N+](C)(C)CCOc1ccccc1.O=S(=O)([N-]S(=O)(=O)C(F)(F)F)C(F)(F)F , what activity coefficient is on record?
*A* 2.3

*Q* For the compound Cc1ccccc1C [1,2-dimethylbenzene] + CCCCCCCCCCCC[N+](C)(C)CCOc1ccccc1.N#C[N-]C#N , what activity coefficient is on record?
*A* 1.23

Source of measurements: the NIST ThermoML archive (doi:10.1016/j.fluid.2018.09.024)
